protocol: qHTS of pediatric cancer cell lines to identify multiple opportunities for drug repurposing: Primary screen for Rh18 cells (AID 1347102); further: nearly all actives have a fitted effect of over 65% in size
recorded_conditions: Rh18 rhabdomyosarcoma viability, CellTiter-Glo luminescence, 48 h; series mostly up to 46 µM
Results filed as inconclusive are left out. Calls of active or inactive are those of the source. The call rests on the fitted dose curve; in most records, active means well fitted cell-killing curve with a large enough effect; inconclusive means small, poorly fitted or top-dose-only effect; inactive means flat fitted curve, though single readings scatter.

| molecule | activity change, negative = cytotoxic |
| --- | --- |
| OC1C(O)C(O)C(O)C(O)C1O (centres undefined) | inactive |
| O=C(O)C1(C(=O)O)CCC1.[NH2-].[NH2-].[Pt+2] | inactive |
| CCN(CC)CCOc1ccccc1C(=O)CCc1ccccc1 | inactive |
| CC(C(=O)O)c1cccc(Oc2ccccc2)c1 (centres undefined) | inactive |
| NC(=O)C1(N2CCCCC2)CCN(CCCC(=O)c2ccc(F)cc2)CC1 | inactive |
| CCNC(=O)/C=C/c1cccc(Br)c1 | inactive |
| NS(=O)(=O)c1ccc(Cl)c(S(N)(=O)=O)c1 | inactive |
| CCC(Cc1c(I)cc(I)c(N)c1I)C(=O)O (centres undefined) | inactive |
| CCCCN=C(N)N=C(N)N | inactive |
| COc1cc(C(=O)N2CCCCCCC2)cc(OC)c1OC | inactive |
| CCCCCCCCCCCCCCC[C@H](O)[C@@H](N)CO | inactive |
| O=C(c1ccc(F)cc1)C1CCN(CCn2c(=S)[nH]c3ccccc3c2=O)CC1 | inactive |
| CC(=O)NC(=O)c1ccccc1O | inactive |
| CCOc1cc(OCC)c(C(=O)CCC(=O)O)cc1OCC | inactive |
| CCOC(=O)c1c(N)sc2c1CCN(Cc1ccccc1)C2 | inactive |
| CO[C@]12C[C@@H](COC(=O)c3cncc(Br)c3)CN(C)[C@@H]1Cc1cn(C)c3cccc2c13 | inactive |
| CCCc1ncc(C[n+]2ccccc2C)c(N)n1 | inactive |
| O=C1OC(CN2CCOCC2)CN1/N=C/c1ccc([N+](=O)[O-])o1 (centres undefined) | inactive |
| CN(C)CCC[C@@]1(c2ccc(F)cc2)OCc2cc(C#N)ccc21 | inactive |
| CC(C)(C)NC[C@H](O)COc1nsnc1N1CCOCC1 | inactive |
| C[C@H]1[C@H]2CC[C@H]3[C@@H]4CC=C5C[C@@H](N(C)C)CC[C@]5(C)[C@H]4CC[C@]23CN1C | inactive |
| Cc1cccc(C)c1NC(=O)c1ccccc1C(=O)O | inactive |
| Cc1ccccc1OCC(O)CO (centres undefined) | inactive |
| O=C(O)c1ccc(S(=O)(=O)N(Cl)Cl)cc1 | inactive |
| CCC(CC)(CC(=O)Nc1cccc(/C=C/c2nc(C3CCC3)cs2)c1)C(=O)O | inactive |
| CC1=C(C(=O)O)N2C(=O)[C@@H](NC(=O)[C@H](N)c3ccccc3)[C@H]2SC1 | inactive |
| O=C(Nc1ccc([N+](=O)[O-])cc1)Nc1ccc([N+](=O)[O-])cc1 | inactive |
| CCCCCCCCCCCCOCCOCCOCCOCCOCCOCCOCCOCCOCCO | inactive |
| CCCCc1cc2ccccc2c(OCCN(C)C)n1 | inactive |
| O=C1c2cccc3c2[C@H](CCC3)CN1[C@@H]1CN2CCC1CC2 | inactive |
| O=C(O)P(=O)(O)O | inactive |
| CCc1ccc(C(=O)C(C)CN2CCCCC2)cc1 (centres undefined) | inactive |
| CC[C@H](c1ccc(O)cc1)[C@@H](CC)c1ccc(O)cc1 | inactive |
| C[N+]1(CC2COC(c3ccccc3)(C3CCCCC3)O2)CCCCC1 (centres undefined) | inactive |
| CC(=O)Nc1ccc(OCC(O)CNC(C)C)cc1 (centres undefined) | inactive |
| CC(C)(C)NCC(O)COc1cccc2c1C[C@H](O)[C@H](O)C2 (some centres undefined) | inactive |
| CCCCNc1ccc(C(=O)OCCOCCOCCOCCOCCOCCOCCOCCOCCOC)cc1 | inactive |
| CCCCCCCCOc1ccc(C(=O)c2ccccc2)c(O)c1 | inactive |
| C/C=C/c1ccc(O)c(OC)c1 | inactive |
| CCN1CCN(C(=O)N[C@@H](C(=O)N[C@@H]2C(=O)N3C(C(=O)O)=C(CSc4nnnn4C)CS[C@H]23)c2ccc(O)cc2)C(=O)C1=O | inactive |
| O=C(O)Cc1csc(-c2ccc(Cl)cc2)n1 | inactive |
| CCOC(=O)c1ccc(N)cc1 | inactive |
| N#CCC(=O)NN | inactive |
| CN(C)C(=O)Nc1ccc(Cl)c(Cl)c1 | inactive |
| CC(=O)OCC(=O)[C@H]1CC[C@H]2[C@@H]3CCC4=CC(=O)CC[C@]4(C)[C@H]3CC[C@]12C | inactive |
| CCCN(CCc1cccs1)[C@H]1CCc2c(O)cccc2C1 | inactive |
| NC(=S)N/N=C/c1cccnc1 | inactive |
| CC(C)CCCC(C)N (centres undefined) | inactive |
| CN(Cc1ccc(C(C)(C)C)cc1)Cc1cccc2ccccc12 | inactive |
